Biological target: Integrin alpha-IIb/beta-3 (Homo sapiens, UniProt P05106+P08514)
Sequence (P05106 27-788 limits assumed): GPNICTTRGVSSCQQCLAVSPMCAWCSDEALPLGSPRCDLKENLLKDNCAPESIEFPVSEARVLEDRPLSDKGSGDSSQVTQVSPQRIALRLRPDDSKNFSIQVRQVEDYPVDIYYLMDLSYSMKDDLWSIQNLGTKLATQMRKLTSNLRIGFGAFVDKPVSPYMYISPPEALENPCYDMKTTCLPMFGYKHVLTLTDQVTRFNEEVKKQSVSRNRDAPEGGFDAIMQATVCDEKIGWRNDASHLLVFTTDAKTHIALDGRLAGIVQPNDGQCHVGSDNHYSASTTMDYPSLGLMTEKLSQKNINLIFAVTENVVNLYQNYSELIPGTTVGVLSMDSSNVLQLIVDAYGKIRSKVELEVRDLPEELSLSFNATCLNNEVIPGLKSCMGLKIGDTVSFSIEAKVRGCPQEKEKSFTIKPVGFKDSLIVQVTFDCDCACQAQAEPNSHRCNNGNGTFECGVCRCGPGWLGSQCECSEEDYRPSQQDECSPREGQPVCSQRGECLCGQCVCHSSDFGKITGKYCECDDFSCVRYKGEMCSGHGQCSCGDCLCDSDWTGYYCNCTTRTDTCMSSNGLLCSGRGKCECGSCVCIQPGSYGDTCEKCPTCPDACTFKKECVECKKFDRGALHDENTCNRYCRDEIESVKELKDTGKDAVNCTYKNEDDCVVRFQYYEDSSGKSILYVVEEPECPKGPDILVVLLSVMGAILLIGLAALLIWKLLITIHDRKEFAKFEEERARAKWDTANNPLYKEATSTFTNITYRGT
Sequence (P08514 32-887 limits assumed): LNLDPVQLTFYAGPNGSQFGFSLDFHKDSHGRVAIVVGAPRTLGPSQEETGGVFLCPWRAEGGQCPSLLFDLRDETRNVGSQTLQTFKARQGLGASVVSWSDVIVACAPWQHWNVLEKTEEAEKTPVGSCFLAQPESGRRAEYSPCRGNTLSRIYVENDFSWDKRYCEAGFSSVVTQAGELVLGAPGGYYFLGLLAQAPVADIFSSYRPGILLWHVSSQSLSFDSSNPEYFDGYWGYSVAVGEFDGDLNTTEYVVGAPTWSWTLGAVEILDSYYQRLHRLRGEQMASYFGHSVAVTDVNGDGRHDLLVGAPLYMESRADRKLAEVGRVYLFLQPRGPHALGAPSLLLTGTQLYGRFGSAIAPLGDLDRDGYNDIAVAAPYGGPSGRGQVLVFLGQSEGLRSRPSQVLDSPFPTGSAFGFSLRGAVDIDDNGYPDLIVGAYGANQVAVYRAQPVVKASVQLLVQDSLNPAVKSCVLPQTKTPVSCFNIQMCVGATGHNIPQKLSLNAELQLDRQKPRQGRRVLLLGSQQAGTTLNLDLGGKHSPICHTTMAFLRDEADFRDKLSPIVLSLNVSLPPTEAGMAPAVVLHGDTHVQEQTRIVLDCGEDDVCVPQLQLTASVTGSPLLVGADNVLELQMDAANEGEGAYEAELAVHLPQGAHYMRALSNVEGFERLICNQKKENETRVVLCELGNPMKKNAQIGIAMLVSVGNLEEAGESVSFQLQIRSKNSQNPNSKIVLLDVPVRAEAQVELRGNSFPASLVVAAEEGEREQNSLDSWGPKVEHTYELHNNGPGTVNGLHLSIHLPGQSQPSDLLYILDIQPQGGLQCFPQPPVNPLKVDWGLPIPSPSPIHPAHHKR
Sequence (P08514 891-1039 limits assumed): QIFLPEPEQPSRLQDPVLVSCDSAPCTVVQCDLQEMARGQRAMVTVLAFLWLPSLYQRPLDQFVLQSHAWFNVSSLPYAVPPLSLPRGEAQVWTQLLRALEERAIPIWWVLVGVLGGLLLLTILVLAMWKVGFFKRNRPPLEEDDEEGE
Test: Displacement of biotinylated fibrinogen from human glycoprotein 2b/3a receptor after 2 hrs by chemiluminescence assay
quantity.measured: pIC50
Remember the convention: pIC50 equals -log10 of concentration in molar.

O=C(NC[C@@H]1CN(c2ccc(N3CCC(C(=O)O)CC3)cc2)C(=O)O1)c1ccc(-c2noc(=O)[nH]2)cc1    6.06
O=C(NC[C@H]1CN(c2ccc(N3CCC(C(=O)O)CC3)cc2)C(=O)O1)c1ccc(-c2noc(=O)[nH]2)cc1    4.80
CC(=O)O.CCOC(=O)C1CCN(c2ccc(N3C[C@@H](CNCc4ccc(C(=N)N)cc4)OC3=O)cc2)CC1    4.46

Record summary for CC(=O)O.CCOC(=O)C1CCN(c2ccc(N3C[C@H](CNCc4ccc(C(=N)N)cc4)OC3=O)cc2)CC1 : reported pIC50 = 4.26

---

Biological target: Integrin alpha-IIb/beta-3 (Homo sapiens, UniProt P05106+P08514)
Assay: Displacement of biotinylated fibrinogen from human glycoprotein 2b/3a receptor after 2 hrs by chemiluminescence assay
pIC50: −log10 of the molar value.
# key: entry, value: pIC50

Look over these answered cases.
CCOC(=O)C1CCN(c2ccc(N3C[C@@H](CNC(=O)c4ccc(Cl)c(N)c4)OC3=O)cc2)CC1    < 3.52
CCOC(=O)C1CCCN(c2ccc(N3C[C@H](CNC(=O)c4cnc(N)s4)OC3=O)cc2)C1.O=C(O)C(F)(F)F (stereo partly drawn)    < 3.52

Kindly consider the entry below.
The reported value for CC1(C(=O)O)CCCN(c2ccc(N3C[C@H](CNC(=O)c4cnc(N)s4)OC3=O)cc2)C1=O.O=C(O)C(F)(F)F (stereo partly drawn) in terms of pIC50 is < 3.52
